# credit: the kinase profiling compilation of Christmann-Franck et al. (2016)

residual activity: recorded values
target: UniProt Q5VT25; test: radiometric filter-binding kinase assay, Kinase HotSpot; settings: compound 0.5 µM; ATP 10 µM
Sequence (Q5VT25 whole entry, looked up): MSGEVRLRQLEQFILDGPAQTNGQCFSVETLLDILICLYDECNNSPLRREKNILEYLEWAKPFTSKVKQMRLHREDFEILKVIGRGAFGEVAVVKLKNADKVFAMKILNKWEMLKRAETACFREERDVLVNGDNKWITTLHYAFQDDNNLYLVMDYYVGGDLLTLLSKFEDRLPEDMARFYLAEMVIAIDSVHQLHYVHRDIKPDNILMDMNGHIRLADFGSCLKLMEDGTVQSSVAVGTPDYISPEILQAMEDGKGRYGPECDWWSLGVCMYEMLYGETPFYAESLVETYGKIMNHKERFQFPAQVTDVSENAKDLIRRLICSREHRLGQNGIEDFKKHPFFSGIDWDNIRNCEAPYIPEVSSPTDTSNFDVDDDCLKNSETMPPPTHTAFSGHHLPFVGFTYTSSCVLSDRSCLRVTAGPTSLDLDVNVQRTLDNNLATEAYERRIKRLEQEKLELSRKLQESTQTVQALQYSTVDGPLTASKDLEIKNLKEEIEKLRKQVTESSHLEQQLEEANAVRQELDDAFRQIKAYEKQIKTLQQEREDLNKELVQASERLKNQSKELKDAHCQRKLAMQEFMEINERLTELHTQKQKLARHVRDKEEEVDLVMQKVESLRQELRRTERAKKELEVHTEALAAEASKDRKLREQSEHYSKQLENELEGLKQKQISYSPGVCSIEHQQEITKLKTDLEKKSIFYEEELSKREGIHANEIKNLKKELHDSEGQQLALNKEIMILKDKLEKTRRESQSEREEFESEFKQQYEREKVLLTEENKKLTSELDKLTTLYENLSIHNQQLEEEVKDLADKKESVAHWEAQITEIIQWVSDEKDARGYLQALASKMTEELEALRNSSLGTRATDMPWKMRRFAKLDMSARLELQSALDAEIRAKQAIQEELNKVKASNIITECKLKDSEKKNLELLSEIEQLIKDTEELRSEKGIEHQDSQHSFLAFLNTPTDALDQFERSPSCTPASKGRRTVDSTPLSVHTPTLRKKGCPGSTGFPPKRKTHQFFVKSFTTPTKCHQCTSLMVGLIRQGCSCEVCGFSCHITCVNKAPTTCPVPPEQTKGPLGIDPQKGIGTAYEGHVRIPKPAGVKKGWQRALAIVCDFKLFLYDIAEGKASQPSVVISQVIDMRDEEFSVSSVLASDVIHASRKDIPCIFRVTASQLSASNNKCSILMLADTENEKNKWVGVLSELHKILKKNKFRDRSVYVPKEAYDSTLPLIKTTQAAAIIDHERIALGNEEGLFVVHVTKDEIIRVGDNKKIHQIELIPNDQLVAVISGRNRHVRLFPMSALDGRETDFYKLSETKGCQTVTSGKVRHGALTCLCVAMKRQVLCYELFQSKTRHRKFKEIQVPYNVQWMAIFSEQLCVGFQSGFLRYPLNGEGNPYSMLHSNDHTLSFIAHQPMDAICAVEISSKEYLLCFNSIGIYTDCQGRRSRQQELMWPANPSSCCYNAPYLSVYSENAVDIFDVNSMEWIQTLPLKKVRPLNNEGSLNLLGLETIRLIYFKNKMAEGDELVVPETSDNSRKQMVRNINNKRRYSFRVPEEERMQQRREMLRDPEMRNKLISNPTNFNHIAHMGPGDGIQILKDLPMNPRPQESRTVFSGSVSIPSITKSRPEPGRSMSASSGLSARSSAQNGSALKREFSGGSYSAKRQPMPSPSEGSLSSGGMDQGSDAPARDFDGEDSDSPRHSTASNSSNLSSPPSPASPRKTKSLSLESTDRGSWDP
Write the number in % without appending the unit.

Use the examples below as a reference point.
>>> readout_number("COc1ccc(CNC(=O)Nc2ncc([N+](=O)[O-])s2)cc1")
93.7
>>> readout_number("CN([C@@H](Cc1ccc(OS(=O)(=O)c2cccc3cnccc23)cc1)C(=O)N1CCN(c2ccccc2)CC1)S(=O)(=O)c1cccc2cnccc12")
98.9

Give the measured residual activity for Oc1ccc(Nc2nc(-c3ccc(Cl)cc3)cs2)cc1
87.1

Give the measured residual activity for CN(C)C[C@H]1CCn2c(c(C3=C(c4cn(C)c5ccccc45)C(=O)NC3=O)c3ccccc32)C1
98.1

Give the measured residual activity for O=C1NC(=O)C(c2c[nH]c3ccccc23)=C1c1c[nH]c2ccccc12
89.9

Give the measured residual activity for COc1cc2ncc(-c3ccccc3)nc2cc1OC
85.4

Give the measured residual activity for O=C1NC(=O)/C(=C\c2ccc3nccnc3c2)S1
93.1

Give the measured residual activity for Nc1nccc(-c2c(-c3ccc(F)cc3)ncn2C2CCNCC2)n1
101

Give the measured residual activity for O=C(CCCc1ccc(-c2ccccc2F)cc1)Nc1ccc(O)cc1
103

Give the measured residual activity for O=C1Cc2c([nH]c3ccc(Br)cc23)-c2ccccc2N1
99

----------
biological target: VRK1 (human) (UniProt Q99986); test: radiometric filter-binding kinase assay, Kinase HotSpot; conditions: compound 0.5 µM; ATP 10 µM
Sequence (Q99986 whole entry, looked up): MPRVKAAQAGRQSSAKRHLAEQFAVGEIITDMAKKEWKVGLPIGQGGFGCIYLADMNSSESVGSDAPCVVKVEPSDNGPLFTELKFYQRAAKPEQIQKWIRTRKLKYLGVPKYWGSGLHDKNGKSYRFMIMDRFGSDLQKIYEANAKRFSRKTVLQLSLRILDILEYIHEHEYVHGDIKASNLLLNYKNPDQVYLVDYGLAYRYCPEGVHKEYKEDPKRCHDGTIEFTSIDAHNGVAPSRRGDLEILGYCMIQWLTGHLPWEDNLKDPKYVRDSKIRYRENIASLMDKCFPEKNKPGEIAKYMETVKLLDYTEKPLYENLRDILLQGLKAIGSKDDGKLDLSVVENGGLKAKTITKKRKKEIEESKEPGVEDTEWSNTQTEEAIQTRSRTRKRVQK
Please use Criterion met whenever residual activity is not below 90%, and Criterion not met whenever it is.

Below, 8 compounds whose answers are already recorded.
>>> class_name("Cc1nc2cc3nc(-c4cccs4)cnc3cc2n1C")
"Criterion met"
>>> class_name("O=C1Cc2c([nH]c3ccc(Br)cc23)-c2ccccc2N1")
"Criterion not met"
>>> class_name("COc1cc2ncnc(N3CCN(C(=O)Nc4ccc(Oc5ccccc5)cc4)CC3)c2cc1OC")
"Criterion not met"
>>> class_name("Oc1ccc(Nc2nc(-c3ccc(Cl)cc3)cs2)cc1")
"Criterion met"
>>> class_name("COc1ccc(OC)c2c(=S)c3ccccc3[nH]c12")
"Criterion met"
>>> class_name("O=C1Nc2ccccc2/C1=C1\\Nc2ccccc2\\C1=N/O")
"Criterion not met"
>>> class_name("O=C1NC(=O)/C(=C\\c2ccc3nccnc3c2)S1")
"Criterion met"
>>> class_name("O=C1NC(=O)C(c2c[nH]c3ccccc23)=C1c1c[nH]c2ccccc12")
"Criterion met"

Please find the next compound below.
Form field: residual activity at least 90%? Entry: CC(=O)O/N=C1\C(=C2\C(=O)Nc3cc(Br)ccc32)Nc2ccccc21
Criterion not met

----------
residual activity: recorded values
biological target: MINK1 (human) (UniProt Q8N4C8); assay: radiometric filter-binding kinase assay, Kinase HotSpot; conditions: compound 0.5 µM; ATP 10 µM
Sequence (Q8N4C8 whole entry, looked up): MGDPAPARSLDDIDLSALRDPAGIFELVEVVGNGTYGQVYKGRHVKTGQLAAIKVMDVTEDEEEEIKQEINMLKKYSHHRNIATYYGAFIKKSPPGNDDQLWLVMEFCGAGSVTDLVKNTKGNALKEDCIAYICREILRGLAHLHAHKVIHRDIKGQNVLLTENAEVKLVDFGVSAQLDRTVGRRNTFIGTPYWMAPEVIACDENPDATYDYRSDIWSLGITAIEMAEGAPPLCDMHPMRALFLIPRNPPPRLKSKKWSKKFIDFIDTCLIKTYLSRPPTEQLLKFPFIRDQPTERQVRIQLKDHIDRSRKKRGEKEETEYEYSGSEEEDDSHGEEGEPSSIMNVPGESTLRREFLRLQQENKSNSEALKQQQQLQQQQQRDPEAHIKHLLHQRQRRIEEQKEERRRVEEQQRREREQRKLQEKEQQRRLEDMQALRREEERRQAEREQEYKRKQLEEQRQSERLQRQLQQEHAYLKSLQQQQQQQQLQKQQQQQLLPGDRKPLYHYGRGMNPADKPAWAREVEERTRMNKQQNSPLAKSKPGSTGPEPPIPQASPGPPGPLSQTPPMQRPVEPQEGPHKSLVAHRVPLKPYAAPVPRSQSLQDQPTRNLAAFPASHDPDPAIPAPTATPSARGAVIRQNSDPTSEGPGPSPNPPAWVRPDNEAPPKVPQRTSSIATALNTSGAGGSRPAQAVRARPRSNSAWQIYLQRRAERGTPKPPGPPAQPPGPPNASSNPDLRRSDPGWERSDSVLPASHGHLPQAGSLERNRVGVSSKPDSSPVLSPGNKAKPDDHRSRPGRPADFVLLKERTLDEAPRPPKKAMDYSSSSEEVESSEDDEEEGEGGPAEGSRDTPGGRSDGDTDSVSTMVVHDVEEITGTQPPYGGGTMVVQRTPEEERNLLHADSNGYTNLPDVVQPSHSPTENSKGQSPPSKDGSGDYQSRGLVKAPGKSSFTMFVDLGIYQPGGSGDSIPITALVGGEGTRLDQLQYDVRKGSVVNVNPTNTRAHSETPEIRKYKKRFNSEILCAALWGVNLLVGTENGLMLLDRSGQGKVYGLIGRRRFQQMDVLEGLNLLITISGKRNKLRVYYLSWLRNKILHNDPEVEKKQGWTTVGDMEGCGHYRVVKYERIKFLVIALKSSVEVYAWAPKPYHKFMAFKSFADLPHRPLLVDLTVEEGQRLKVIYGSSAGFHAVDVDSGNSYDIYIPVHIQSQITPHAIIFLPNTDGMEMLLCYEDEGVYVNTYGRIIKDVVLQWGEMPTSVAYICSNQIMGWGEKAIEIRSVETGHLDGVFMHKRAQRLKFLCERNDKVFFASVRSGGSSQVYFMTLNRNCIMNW

Give the measured residual activity for Nc1nccc(-c2c(-c3ccc(F)cc3)ncn2C2CCNCC2)n1
96.1%

Give the measured residual activity for Oc1ccc(Nc2nc(-c3ccc(Cl)cc3)cs2)cc1
103%

Give the measured residual activity for CC(C)[C@H](CO)Nc1nc(Nc2cc(N)cc(Cl)c2)c2ncn(C(C)C)c2n1
94.5%

Give the measured residual activity for O=C1Nc2ccccc2/C1=C1\Nc2ccccc2\C1=N/O
50.2%

Give the measured residual activity for COc1cc2ncc(-c3ccccc3)nc2cc1OC
93.5%

----------
molecular target: CSNK2A2 (human) (UniProt P19784); assay: radiometric filter-binding kinase assay, Kinase HotSpot; conditions: compound 0.5 µM; ATP 10 µM
Sequence (P19784 whole entry, looked up): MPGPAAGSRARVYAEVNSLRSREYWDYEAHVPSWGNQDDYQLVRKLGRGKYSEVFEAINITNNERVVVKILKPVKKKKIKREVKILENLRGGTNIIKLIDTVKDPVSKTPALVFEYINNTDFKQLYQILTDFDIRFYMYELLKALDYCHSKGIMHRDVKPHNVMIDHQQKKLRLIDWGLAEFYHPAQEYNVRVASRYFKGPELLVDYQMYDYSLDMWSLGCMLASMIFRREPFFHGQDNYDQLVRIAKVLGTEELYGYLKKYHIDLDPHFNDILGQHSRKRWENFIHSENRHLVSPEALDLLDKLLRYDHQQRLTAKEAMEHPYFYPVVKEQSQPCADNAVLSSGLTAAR
readout type: residual activity (%)
Write the number in % without appending the unit.

Use the examples below as a reference point.
>>> readout_number("COc1cc2ncnc(N3CCN(C(=O)Nc4ccc(Oc5ccccc5)cc4)CC3)c2cc1OC")
61.9
>>> readout_number("Cn1nc2c3c(cccc31)C(=O)c1ccccc1-2")
86.6

Give the measured residual activity for O=C(O)/C=C/c1cc(Br)c(Br)c(Br)c1Br
17

Give the measured residual activity for COc1cc2ncc(-c3ccccc3)nc2cc1OC
98.3

Give the measured residual activity for CN([C@@H](Cc1ccc(OS(=O)(=O)c2cccc3cnccc23)cc1)C(=O)N1CCN(c2ccccc2)CC1)S(=O)(=O)c1cccc2cnccc12
121

----------
molecular target: MAP2K2 (human); assay: radiometric filter-binding kinase assay, Kinase HotSpot; conditions: compound 0.5 µM; ATP 10 µM
readout type: residual activity (%)
Write the number in % without appending the unit.

Give the measured residual activity for CN(C)C[C@H]1CCn2c(c(C3=C(c4cn(C)c5ccccc45)C(=O)NC3=O)c3ccccc32)C1
101

Give the measured residual activity for O=C(O)/C=C/c1cc(Br)c(Br)c(Br)c1Br
103

Give the measured residual activity for COc1ccc(CNC(=O)Nc2ncc([N+](=O)[O-])s2)cc1
73.5

Give the measured residual activity for O=C(CCCc1ccc(-c2ccccc2F)cc1)Nc1ccc(O)cc1
95.1

----------
molecular target: NUAK2 (human) (UniProt Q9H093); assay: radiometric filter-binding kinase assay, Kinase HotSpot; conditions: compound 0.5 µM; ATP 10 µM
Sequence (Q9H093 whole entry, looked up): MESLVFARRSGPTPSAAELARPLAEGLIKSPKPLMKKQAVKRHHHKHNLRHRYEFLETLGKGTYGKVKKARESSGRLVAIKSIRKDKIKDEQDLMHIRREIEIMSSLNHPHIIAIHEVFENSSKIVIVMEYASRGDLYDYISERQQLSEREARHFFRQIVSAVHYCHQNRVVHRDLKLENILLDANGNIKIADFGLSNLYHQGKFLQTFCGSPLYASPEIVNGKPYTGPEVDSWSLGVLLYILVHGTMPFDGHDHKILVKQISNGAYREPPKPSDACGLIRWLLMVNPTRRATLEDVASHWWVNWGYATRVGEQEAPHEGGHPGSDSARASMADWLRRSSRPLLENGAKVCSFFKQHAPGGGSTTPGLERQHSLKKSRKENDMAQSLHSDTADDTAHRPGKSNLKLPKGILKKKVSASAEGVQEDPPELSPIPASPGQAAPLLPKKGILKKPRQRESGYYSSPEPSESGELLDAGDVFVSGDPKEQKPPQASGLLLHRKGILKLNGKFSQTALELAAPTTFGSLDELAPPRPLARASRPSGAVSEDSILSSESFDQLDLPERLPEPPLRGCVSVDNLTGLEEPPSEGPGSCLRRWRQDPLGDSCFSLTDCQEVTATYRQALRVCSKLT
readout type: residual activity (%)
Write the number in % without appending the unit.

Use the examples below as a reference point.
>>> readout_number("CCN(CC)CCCCN1c2ccccc2Oc2ccc(Cl)cc21")
90.9
>>> readout_number("O=C(CCCc1ccc(-c2ccccc2F)cc1)Nc1ccc(O)cc1")
92.9
>>> readout_number("O=C(Nc1cccc(Nc2cc(Nc3cccc(C(F)(F)F)c3)ncn2)c1)C1CC1")
103
>>> readout_number("O=C1NC(=O)C(c2cn(CCCO)c3ncccc23)=C1c1cnccn1")
92.3
>>> readout_number("COc1cc2ncc(-c3ccccc3)nc2cc1OC")
133

Give the measured residual activity for CC(C)[C@H](CO)Nc1nc(Nc2cc(N)cc(Cl)c2)c2ncn(C(C)C)c2n1
81.4

Give the measured residual activity for COc1ccc(OC)c2c(=S)c3ccccc3[nH]c12
98.9

Give the measured residual activity for Nc1nccc(-c2c(-c3ccc(F)cc3)ncn2C2CCNCC2)n1
122

Give the measured residual activity for CN(C)C[C@H]1CCn2c(c(C3=C(c4cn(C)c5ccccc45)C(=O)NC3=O)c3ccccc32)C1
121

Give the measured residual activity for CN([C@@H](Cc1ccc(OS(=O)(=O)c2cccc3cnccc23)cc1)C(=O)N1CCN(c2ccccc2)CC1)S(=O)(=O)c1cccc2cnccc12
88.7

Give the measured residual activity for CCn1cnc2c(Nc3cccc(Cl)c3)nc(N[C@@H]3CCCC[C@@H]3N)nc21
93.7

----------
residual activity: recorded values
target: UniProt:P43403; assay: radiometric filter-binding kinase assay, Kinase HotSpot; details: compound 0.5 µM; ATP 10 µM
Write the number in % without appending the unit.

Use the examples below as a reference point.
>>> readout_number("CCn1cnc2c(Nc3cccc(Cl)c3)nc(N[C@@H]3CCCC[C@@H]3N)nc21")
106
>>> readout_number("O=C1NC(=O)/C(=C\\c2ccc3nccnc3c2)S1")
92.4
>>> readout_number("O=C(Nc1cccc(Nc2cc(Nc3cccc(C(F)(F)F)c3)ncn2)c1)C1CC1")
93
>>> readout_number("Nc1nccc(-c2c(-c3ccc(F)cc3)ncn2C2CCNCC2)n1")
92.3

Give the measured residual activity for Oc1ccc(Nc2nc(-c3ccc(Cl)cc3)cs2)cc1
94.7

Give the measured residual activity for COc1ccc(OC)c2c(=S)c3ccccc3[nH]c12
100

Give the measured residual activity for O=C1Nc2ccccc2/C1=C1\Nc2ccccc2\C1=N/O
95.6

----------
molecular target: MAP3K2 (human); assay: radiometric filter-binding kinase assay, Kinase HotSpot; details: compound 0.5 µM; ATP 10 µM
readout type: residual activity (%)
Write the number in % without appending the unit.

>>> readout_number("CCN(CC)CCCCN1c2ccccc2Oc2ccc(Cl)cc21")
88.2

Give the measured residual activity for CC(C)c1nn(-c2c(Cl)cccc2Cl)c2nc(Cc3ccc(OCCO)cc3)nc(O)c12
94.7

----------
residual activity: recorded values
biological target: PRKD2 (human); experiment: radiometric filter-binding kinase assay, Kinase HotSpot; conditions: compound 0.5 µM; ATP 10 µM
Give me the value, and tack the unit on after it.

>>> result("O=C1Nc2ccccc2/C1=C1\\Nc2ccccc2\\C1=N/O")
"89%"
>>> result("COc1ccc(OC)c2c(=S)c3ccccc3[nH]c12")
"88.1%"
>>> result("O=C1Nc2ccccc2/C1=C1/Nc2ccccc2/C1=N\\OCCC(O)CO (stereo unspecified)")
"74.3%"
>>> result("Cn1cnc2cc3c(Nc4cccc(Br)c4)ncnc3cc21")
"82.6%"
>>> result("CC(C)[C@H](CO)Nc1nc(Nc2cc(N)cc(Cl)c2)c2ncn(C(C)C)c2n1")
"103%"

System PRKD2 (human). Read-out residual activity. Item COc1ccc(CNC(=O)Nc2ncc([N+](=O)[O-])s2)cc1 . Report value.
97.3%
